All figures here come from paper PMC6167383.

- ASSAYED SYSTEM: the molecule itself
- ASSAY EXPLANATION: SEC; Superose 6 10/300 GL, 50 mM Tris-HCl pH 7.5, 150 mM NaCl, 10% glycerol, 0.5 mM β-mercaptoethanol, 4 °C; ~75 μg of the Sae2 variant, mock-treated or treated with λ phosphatase for 90 min at 30 °C before loading; absorbance at 215 nm
MEASURED ATTRIBUTE: binding result

pSae2 S267E dephosphorylated with λ phosphatase (natural protein, S. cerevisiae, UniProt P46946 1-345, looked up, dephosphorylated with λ phosphatase, Sae2, S. cerevisiae, full-length polypeptide with S267E; also called pSae2 S267E λ; not shown: MBP, N-terminal, cleaved) MVTGEENVYLKSSLSILKELSLDELLNVQYDVTTLIAKRVQALQNRNKCVLEEPNSKLAEILCHEKNAPQQSSQTSAGPGEQDSEDFILTQFDEDIKKESAEVHYRNENKHTVQLPLVTMPPNRHKRKISEFSSPLNGLNNLSDLEDCSDTVIHEKDNDKENKTRKLLGIELENPESTSPNLYKNVKDNFLFDFNTNPLTKRAWILEDFRPNEDIAPVKRGRRKLERFYAQVGKPEDSKHRSLSVVIESQNSDYEFAFDNLRNRSKEPPGFGRLDFPSTQEGNEDKKKSQEIIRRKTKYRFLMASNNKIPPYEREYVFKREQLNQIVDDGCFFWSDKLLQIYARC
binds
pSae2 S267A, expressed in the presence of phosphatase inhibitors (natural protein, S. cerevisiae, UniProt P46946 1-345, looked up, phosphorylated (prepared with phosphatase inhibitors; sites not listed), Sae2, S. cerevisiae, point mutant made in the pFB-MBP-Sae2-his plasmid; not shown: MBP, N-terminal, cleaved) MVTGEENVYLKSSLSILKELSLDELLNVQYDVTTLIAKRVQALQNRNKCVLEEPNSKLAEILCHEKNAPQQSSQTSAGPGEQDSEDFILTQFDEDIKKESAEVHYRNENKHTVQLPLVTMPPNRHKRKISEFSSPLNGLNNLSDLEDCSDTVIHEKDNDKENKTRKLLGIELENPESTSPNLYKNVKDNFLFDFNTNPLTKRAWILEDFRPNEDIAPVKRGRRKLERFYAQVGKPEDSKHRSLSVVIESQNSDYEFAFDNLRNRSKAPPGFGRLDFPSTQEGNEDKKKSQEIIRRKTKYRFLMASNNKIPPYEREYVFKREQLNQIVDDGCFFWSDKLLQIYARC
binds
pSae2 ΔC95, lacking 95 C-terminal residues (domain or fragment, S. cerevisiae, UniProt P46946 1-250, looked up, phosphorylated (named pSae2; sites not listed), Sae2, S. cerevisiae, lacking the 95 C-terminal residues; source: Sf9, purified as pSae2; not shown: MBP, N-terminal, cleaved) MVTGEENVYLKSSLSILKELSLDELLNVQYDVTTLIAKRVQALQNRNKCVLEEPNSKLAEILCHEKNAPQQSSQTSAGPGEQDSEDFILTQFDEDIKKESAEVHYRNENKHTVQLPLVTMPPNRHKRKISEFSSPLNGLNNLSDLEDCSDTVIHEKDNDKENKTRKLLGIELENPESTSPNLYKNVKDNFLFDFNTNPLTKRAWILEDFRPNEDIAPVKRGRRKLERFYAQVGKPEDSKHRSLSVVIESQ
binds
